TESTED_ON: T1, Human NRP2 (aa23-855) (Homo sapiens, UniProt O60462)
T1 construct: Human NRP2 (aa23-855)
T1 sequence (O60462 23-855 isoform O60462-3): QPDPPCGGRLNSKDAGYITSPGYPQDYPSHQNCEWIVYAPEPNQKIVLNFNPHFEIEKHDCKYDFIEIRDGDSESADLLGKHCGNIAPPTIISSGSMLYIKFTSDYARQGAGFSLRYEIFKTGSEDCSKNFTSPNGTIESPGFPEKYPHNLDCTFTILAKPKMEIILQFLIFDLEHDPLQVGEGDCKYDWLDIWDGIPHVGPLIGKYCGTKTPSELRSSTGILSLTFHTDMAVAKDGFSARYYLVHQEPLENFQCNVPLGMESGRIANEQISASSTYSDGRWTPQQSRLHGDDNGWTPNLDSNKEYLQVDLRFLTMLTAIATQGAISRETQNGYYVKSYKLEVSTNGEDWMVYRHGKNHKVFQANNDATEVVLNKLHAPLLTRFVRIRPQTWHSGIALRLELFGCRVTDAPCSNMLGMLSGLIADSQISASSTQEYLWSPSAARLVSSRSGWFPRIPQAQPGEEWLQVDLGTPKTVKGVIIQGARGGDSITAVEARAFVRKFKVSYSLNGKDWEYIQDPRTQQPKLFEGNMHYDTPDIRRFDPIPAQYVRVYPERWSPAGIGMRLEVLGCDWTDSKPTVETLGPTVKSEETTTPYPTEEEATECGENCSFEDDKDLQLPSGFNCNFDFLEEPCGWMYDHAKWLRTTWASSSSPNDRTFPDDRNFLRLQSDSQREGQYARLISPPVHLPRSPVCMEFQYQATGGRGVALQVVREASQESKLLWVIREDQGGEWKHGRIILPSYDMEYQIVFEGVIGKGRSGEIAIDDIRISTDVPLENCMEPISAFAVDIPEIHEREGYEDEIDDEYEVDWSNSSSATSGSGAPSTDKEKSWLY
ASSAY: SPR binding affinity of anti-NRP2 antibodies to human NRP2 antigen
APPLIED_CONDITIONS: KD = kd/ka, Langmuir (1:1) model
I'd be grateful if you could share measured Kd for these entries.
Write the figure, then the unit, nothing else.

MOLECULE: aNRP2-14v9: humanized, affinity matured anti-NRP2 antibody, target domain a2; VH SEQ ID NO: 53, VL SEQ ID NO: 54 (antibody, V domains shown, Variable heavy chain region; Light chain variable region) VH: QLQLVESGGGVVQPGRSLRLSCTVSGFSLTSYGVHWVRQAPGKGLEWVGLIWSGGSTDYSPAFISRFTISEDNSKSTVYLQMNSLRAEDTAVYFCARNSYSSGYYAMDYWGQGTTVTVSS VL: DIQLTQSPSFLSASVGDRVTITCKASQNVGHAVAWYQQKPGKAPKLLIYSASNRYTGVPSRFSGSGSGTEFTLTISSLQPEDFATYYCQQYSRYPPYTFGGGTKVEIK
Kd: 150 pM

Kd reading for aNRP2-10v13: humanized, affinity matured anti-NRP2 antibody, target domain b1; VH SEQ ID NO: 69, VL SEQ ID NO: 70 (antibody, V domains shown, Variable heavy chain region; Light chain variable region) VH: EVQLVQSGAEVKKPGATVKISCKVSGFNIKDYYVHWVQQAPGKGLEWMGRIDVHDDETKYAPKFQGRVTITADTSTDTAYMELSSLRSEDTAVYYCATPIYGAREAWFAYWGQGTLVTVSS VL: DIQMTQSPSSLSASVGDRVTITCTASSSVSSSYLHWYQQKPGKAPKLLIYRTSNLASGVPSRFSGSGSGTDFTLTISSLQPEDFATYYCHQYYRSPPTFGGGTKVEIK : 358 pM
